src = the supplement of paper PMC10567573

Entries annotated with measured protein stability index
B1: NEK8 (parent)
chain: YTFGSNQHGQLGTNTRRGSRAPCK

Variants of: B1
ASSAY_NAME: protein stability index of a GFP-peptide fusion (GPS, HEK-293T) (PSI 1-6); higher = more stable;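 also: lentivirally expressed fusions sorted by FACS into six bins by GFP to DsRed ratio, PSI derived from sequencing read proportions per bin multiplied by bin number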
RECORDED_CONDITIONS: c terminus: a fixed tail appended
In your answer, state the number alone without any accompanying words.

These solved cases illustrate the format of a correct answer.
1. T13E	4.37
2. R17D	3.84
3. S19C	3.08
4. P22S	3.96

Switching to the query record.
The recorded protein stability index for `S19Q` is 4.02
